// provenance: a melting point compilation (Tetko et al.; mined from patent text by program, amines drawn as free bases though some values may be those of a salt)

I'd be grateful if you could share measured melting point for these entries.

[[record]]
compound = "C=CCNc1c(CO)cnc2cn(C)nc12"
property_name = "melting point"
test_value = "151 to 159 °C"

[[record]]
compound = "COc1cccc2c(CCNC3COc4c(F)ccc(C(N)=O)c4C3)coc12 (centres undefined)"
property_name = "melting point"
test_value = "172 to 174 °C"

[[record]]
compound = "COc1cc2c(=O)n(CCCn3ccnc3)c3c4ccccc4[nH]c(=O)c3c2cc1OC"
property_name = "melting point"
test_value = "288 to 290 °C"

[[record]]
compound = "O=C(O)c1ccc(OCC2CN(C(=O)c3ccccc3)C(=O)O2)cc1 (centres undefined)"
property_name = "melting point"
test_value = "219 to 221 °C"

[[record]]
compound = "COc1ccc(S(=O)(=O)C(CC(=O)NO)Cc2ccccc2)cc1 (centres undefined)"
property_name = "melting point"
test_value = "118 to 120 °C"


Hi, could you look up melting point for each item in my list?
1. CCN1C(=O)N=NC1c1cccc(F)c1 (centres undefined)
2. COC(=O)c1cc(C(=O)NCCF)c2cc(Cc3ccc(F)cc3)cnc2c1O
3. COc1ccc2[nH]c([S+]([O-])Cc3ncc(C)c(OC)c3C)nc2n1 (centres undefined)
4. CC#CCOc1ccc(S(=O)C(C(=O)NO)C2CCCCC2)cc1 (centres undefined)
5. COC(=O)c1c(Oc2ccccc2N)c2ccccc2n1C
6. CCOCc1cc2ccc(OC)cc2o/c1=N\c1ccccc1
7. NCCCC(N)(C(=O)O)C(F)F (centres undefined)
8. COC(=O)c1cc(NS(C)(=O)=O)ccc1OC

## Result
1: 135 to 140 °C; 2: 216 to 217 °C; 3: 224 to 226 °C; 4: 188 °C; 5: 103 to 105 °C; 6: 107 to 108 °C; 7: 183 °C; 8: 82 to 83 °C

// melting point value for COC(=O)c1cncn1C1c2ccccc2C(Br)(Br)C1(C)C (centres undefined) : 138 °C

----------
property.name: melting point

Worked cases, melting point given:
[[record]]
compound = "CCCCCCCCSc1ccc(C#N)c(C#N)c1"
test_value = "37 to 38 °C"

[[record]]
compound = "CC(N1CCN(c2nnn(Cc3ccc(C(C)(C)C)cc3)n2)CC1)C(O)(Cn1cncn1)c1ccc(F)cc1F (centres undefined)"
test_value = "99 to 101 °C"

[[record]]
compound = "CCn1ncc2c(NCC3CCCCC3)c3cccc(Br)c3nc21"
test_value = "160 to 162 °C"

[[record]]
compound = "CCOC(=O)C=Cc1cc(OC)c(OCc2ccccc2)c(OC)c1"
test_value = "68 to 69 °C"

[[record]]
compound = "COc1ccc(OCC(=O)N[C@@H](Cc2ccccc2)C(=O)CSCc2ccsc2)cc1"
test_value = "80 to 81 °C"


Give melting point for each of the items listed below.
1. CC(Cc1c[nH]c2ccccc12)(NC(=O)OC1C2CC3CC(C2)CC1C3)C(=O)NCC(NC(=O)CSc1ncc[nH]1)c1ccccc1 (centres undefined)
2. COc1cc(Nc2nc3cccc(-c4ccn[nH]4)c3o2)cc(OC)c1OC
3. c1ccc(-c2cnc3c(c2)nnc2cncn23)cc1
4. CCOC(=O)c1cnc2ccc(CC)nc2c1O
5. CCOC(=O)C1=C(C)NC(C#N)=C(C(=O)OCC)C1c1ccccc1Cl (centres undefined)
6. CCOC(=O)/C=C/c1c(CC)cnc2c(NC(=O)c3c(Cl)cccc3Cl)cccc12
7. COC(=O)CN(NC(N)=O)c1cc(C)cc(C)c1

## Result
["112 to 122 °C", "185 to 189 °C", "225 to 227 °C", "262 to 264 °C", "136 to 137 °C", "115 to 118 °C", "139 to 141 °C"]

Give one value of melting point per listed compound.
1. COc1ccccc1N1CCN(CCNC(=O)c2cccc(OC)c2OC)CC1
2. CC1Cn2c(nc3c(c2=O)CCCC3)-c2[nH]c3ccccc3c21 (centres undefined)

## Result
["133 to 134 °C", "220 to 221 °C"]

For every listed record, write down its melting point.
1. Cc1ccc(OCc2ccccc2)c2[nH]c(-c3ccccc3)nc12
2. CNCc1ccc(CSCCNC2=NS(=O)(=O)N=C2NC)o1
3. O=S(=O)(CCCl)CCC(F)(F)C(F)(F)C(F)(F)C(F)(F)C(F)(F)C(F)(F)C(F)(F)C(F)(F)F
4. N#Cc1cccc(OCc2cccc(OCc3ccc4ccccc4n3)c2)c1
5. O=C1CNc2ccc(F)cc2O1

## Result
221 to 224 °C
50 to 56 °C
130 to 131 °C
86 to 87 °C
199 °C

----------
Provide the reported melting point of each item.

# count of solved cases: 3
[[record]]
molecule = "Cc1cc2c(c(Sc3ccc(Cl)cc3)n1)C(=O)N(CC1Cc3c(sc(N)c3C(=O)OC(C)(C)C)CO1)C2=O (configuration not stated)"
property_name = "melting point"
test_value = "118 to 119 °C"

[[record]]
molecule = "CC(C)c1nn(-c2ccc(C(F)(F)F)cn2)cc1CCCOc1cccc(CC(=O)O)c1"
property_name = "melting point"
test_value = "82 to 83 °C"

[[record]]
molecule = "CCOC(=O)C(C(=O)O)=C1SCS1"
property_name = "melting point"
test_value = "166 to 167 °C"


Fill in melting point for each of the 4 molecules listed.
1. CNC(=O)c1cccc(-c2c(C)cc(C)cc2C)c1
2. Clc1cc2cc[nH]c2c(Cl)c1Cl
3. CCOC(=O)Nc1cc2c(cc1F)nc(C(F)(F)F)n2Cc1cccc(Cl)c1
4. O=C(C#Cc1ccc(C(F)(F)F)cc1Cl)Nc1ccc(OCCn2cccn2)cc1

## Result
1. 143 °C
2. 97.5 to 98 °C
3. 144 to 146 °C
4. 120 to 125 °C

----------
property.name: melting point

Check out these entries, answers already filled in.
[[record]]
compound = "COc1ccc(OCC(O)CNC(C)(C)C)c(C2=NNC(=O)CC2)c1 (centres undefined)"
test_value = "127 to 128 °C"

[[record]]
compound = "COc1cc2c(C)c(C)sc2c(Cl)c1Cl"
test_value = "159 to 160 °C"

[[record]]
compound = "c1ccc(-c2cccc3c4c([nH]c23)CCNCC4)cc1"
test_value = "143 to 174 °C"

[[record]]
compound = "Nc1nc2c(c(=O)[nH]1)C(CCc1ccc(C(=O)O)cc1)CN2 (centres undefined)"
test_value = "> 290 °C"

[[record]]
compound = "Cc1ccc(Cn2c(NC3CCN(C)CC3)nc3cccnc32)o1"
test_value = "131 °C"


I'm hoping you can list melting point for every compound here, please.
1. CC1(C#N)C(=O)C2=C(c3ccccc3)NC(=O)C2=C1c1ccccc1 (centres undefined)
2. CCn1cc(C(=O)O)c(=O)c2c(F)c(F)c(F)c(F)c21
3. CS(=O)(=O)c1ccc(-c2sc(-c3ccccc3Cl)nc2-c2ccc(Br)cc2)cc1
4. CC1CC=CC2C(=O)OC(=O)C12 (centres undefined)

## Result
["299 to 301 °C", "229 to 230 °C", "168 to 184 °C", "55 °C"]

----------
So I've got a bunch of compounds here, and I need their melting point values.

Example entries begin here.
[[record]]
compound = "COc1cc2c(cc1CCCCO)oc1cc(-c3ccccc3Cl)c3c(c12)C(=O)NC3=O"
test_value = "158 to 162 °C"

[[record]]
compound = "CCCCN(C(=O)NC)c1ccc(Cl)c(Cl)c1"
test_value = "58 °C"

[[record]]
compound = "Cc1ccc(-c2noc3c(Cl)c(OCC(=O)O)ccc23)s1"
test_value = "235 to 238 °C"

[[record]]
compound = "CCCCCCCC(=O)NC(=O)OCc1nc(C(C)C)c(Sc2cc(Cl)cc(Cl)c2)n1CC"
test_value = "99 to 101 °C"


Go through the list and state melting point for each entry.
1. N#Cc1nsc2ccc([N+](=O)[O-])cc12
2. O=C(O)COc1cccc(-n2nc(-c3ccc(F)cc3)c3cccnc32)c1
3. CN1C(=O)C2(COc3cc4c(cc32)OCCO4)c2c(Oc3ccc(F)cc3)cccc21 (stereo not given)
4. c1ccc(C2(Cn3cncn3)OCCO2)cc1
5. CC(O)(C(N)=O)c1ccc(OS(=O)(=O)C(F)(F)F)cc1 (stereo not given)
6. CC(=O)OCC1CC(Nc2cc(Cl)c(Cl)cc2N)C(OC(C)=O)C1OC(C)=O (stereo not given)
7. COCCCOc1cc(C[C@@H](C(=O)O)C(C)C)ccc1OC

## Result
168 to 170 °C
225 to 226 °C
151 to 153 °C
127 °C
105 to 107 °C
124 to 125 °C
43.5 to 44 °C
